# TEST DETAILS: RP, Merck Supelco Ascentis Express C18, 100 × 2.1 mm, 2 µm, 40 °C, 0.25 mL/min, estimated dead time 0.88 min; A: water + 0.1% formic acid, pH 3; B: acetonitrile + 0.1% formic acid, pH 3; gradient (min/%B) 0/5 2/5 17/99.9 20/99.9
# SETTINGS: stereoisomer not certain
READOUT NAME: LC retention time (min)

# annotated cases, reported LC retention time shown
CCOC(=O)Cc1c[nH]c2ccccc12 [ETHYL 3-INDOLEACETATE] :: 9.59
NC(=O)c1ccccc1O [SALICYLAMIDE] :: 5.19
CC(=O)NC(Cc1c[nH]c2ccccc12)C(=O)O (configuration not stated) :: 6.02
CC(C)(CO)C(O)C(=O)NCCC(=O)O (configuration not stated) [PANTOTHENATE] :: 2.15

A: C[Se]CCC(N)C(=O)O (configuration not stated)
B: CCCCCCCCC=CCCCCCCCC(=O)OCC(O)CO (configuration not stated)
Lower value of LC retention time belongs to which: A or B ? State your choice using its label.
A
(A: 1.07 min, B: 16.5 min)

a: CC(=O)Oc1cccc(O)c1 [RESORCINOL MONOACETATE]
b: CCCCCCCCCCCC(=O)O [LAURATE]
c: Cn1c(=O)c2[nH]cnc2n(C)c1=O
d: Nc1nc2c(ncn2C2CC(O)C(CO)O2)c(=O)[nH]1 (configuration not stated)
Rank items: key LC retention time, increasing. Ranked list of labels, please, in the requested order.
d, c, a, b
(d: 1.13 min, c: 3.32 min, a: 6.34 min, b: 13.9 min)

1: CCCCCCCCCCCCCC(=O)OCC(O)CO (configuration not stated) [GLYCEROL-MYRISTATE]
2: O=C(O)CCCCCC(=O)O [6-CARBOXYHEXANOATE]
Determine, for 1 and 2 , which has the greater value of LC retention time. State your choice using its label.
1
(1: 14.6 min, 2: 4.61 min)

A: CC12CCC(=O)C=C1CCC1C2C(O)CC2(C)C(C(=O)CO)CCC12 (configuration not stated)
B: O=C(O)CCCCC(=O)O [ADIPATE]
Lower value of LC retention time belongs to which: A or B ? State your choice using its label.
B
(B: 3.27 min, A: 8.66 min)

* * *

# TEST DETAILS: RP, Merck Supelco Ascentis Express C18, 100 × 2.1 mm, 2 µm, 40 °C, 0.4 mL/min, estimated dead time 0.55 min; A: water + 0.1% formic acid, pH 3; B: acetonitrile + 0.1% formic acid, pH 3; gradient (min/%B) 0/5 2/5 17/99.9 20/99.9
# SETTINGS: stereoisomer not certain
READOUT NAME: LC retention time (min)

# annotated cases, reported LC retention time shown
O=C(O)Cc1ccc(O)c(O)c1 [3,4-DIHYDROXYPHENYLACETATE] :: 2.02
CC(O)(CCO)CC(=O)[O-] (stereo not given) [MEVALONATE] :: 0.73

P: CC12CCC(=O)C=C1CCC1C2CCC2(C)C1CCC2(O)C(=O)CO (stereo not given) [CORTEXOLONE]
Q: O=C(O)Cc1ccccc1O [2-HYDROXYPHENYLACETATE]
R: CC(=O)c1ccc(O)cc1O [2',4'-DIHYDROXYACETOPHENONE]
Rank entries according to their LC retention time, from the largest number down. Ranked list of labels, please, in the requested order.
P, R, Q

This collection of values is drawn from the RepoRT retention time repository (doi:10.1007/s00216-021-03828-0).
